The values you see were collected from paper PMC8728392.

test system: human liver cancer cell line (HepG2); experiment: MTT assay, cytotoxicity; type: cell-based; conditions: HepG2; 625 μg/ml; 24 hours
Each entry gets Not satisfied if its survival percentage (mean ± SEM) stays under 20%, and Satisfied if its survival percentage (mean ± SEM) is 20% or above.

Query block: API: above_or_equal(metric=survival percentage (mean ± SEM), cutoff=20%) for item CCOCc1nc2sc3c(c2c(=O)n1CC(=O)Nc1ccc(C(=O)/C=C\c2cccc([N+](=O)[O-])c2)cc1)CCN(C(=O)OCC)C3 [Compound 3f]
Result block: Not satisfied

Query block: API: above_or_equal(metric=survival percentage (mean ± SEM), cutoff=20%) for item CCOC(=O)Cn1c(SCC(=O)Nc2ccc(C(=O)/C=C\c3cccc([N+](=O)[O-])c3)cc2)nc2sc3c(c2c1=O)CCN(C(=O)OCC)C3 [Compound 3c]
Result block: Satisfied

Query block: API: above_or_equal(metric=survival percentage (mean ± SEM), cutoff=20%) for item CCOC(=O)Cn1c(SCC(=O)Nc2ccc(C(=O)/C=C\c3ccccc3Cl)cc2)nc2sc3c(c2c1=O)CCN(C(=O)OCC)C3 [Compound 3a]
Result block: Satisfied

Query block: API: above_or_equal(metric=survival percentage (mean ± SEM), cutoff=20%) for item CCOC(=O)Cn1c(SCC(=O)Nc2ccc(C(=O)/C=C\c3cc(OC)c(OC)c(OC)c3)cc2)nc2sc3c(c2c1=O)CCN(C(=O)OCC)C3 [Compound 3b]
Result block: Not satisfied

Query block: API: above_or_equal(metric=survival percentage (mean ± SEM), cutoff=20%) for item CCOC(=O)Cn1c(SCC(=O)Nc2ccc(C(=O)/C=C\c3cccc([N+](=O)[O-])c3)cc2)nc2sc3c(c2c1=O)CC(C)(C)NC3(C)C [Compound 3g]
Result block: Not satisfied

Query block: API: above_or_equal(metric=survival percentage (mean ± SEM), cutoff=20%) for item CCOC(=O)N1CCc2c(sc3nc(SCC(=O)Nc4ccc(C(=O)/C=C\c5cc(OC)c(OC)c(OC)c5)cc4)[nH]c(=O)c23)C1 [Compound 3e]
Result block: Not satisfied

* * *

Test system: HepG2 cell line
Experiment: Cell cycle analysis (PI, flow cytometry)
Assay type: cell-based, human
Protocol: Cell cycle analysis was performed to decide if the newly synthesized thienopyrimidine derivatives arrested the cell cycle and at what phase of the cell cycle, the HepG2 and MCF-7 cell lines were arrested. The experiments were performed as previously described by Tolba et al.. […] The cells were resuspended with 0.1 mg/ml RNase, stained with […] propidium iodide (PI), and analyzed by flow cytometry using a FACSCalibur flow cytometer (BD Biosciences, San Jose, CA). […]
endpointLabel: cell population in pre-G1 phases compared with control cells

CCOC(=O)Cn1c(SCC(=O)Nc2ccc(C(=O)/C=C\c3cc(OC)c(OC)c(OC)c3)cc2)nc2sc3c(c2c1=O)CCN(C(=O)OCC)C3 [Compound 3b]	significant increase
CCOC(=O)Cn1c(SCC(=O)Nc2ccc(C(=O)/C=C\c3cccc([N+](=O)[O-])c3)cc2)nc2sc3c(c2c1=O)CC(C)(C)NC3(C)C [Compound 3g]	significant increase
CCOC(=O)N1CCc2c(sc3nc(SCC(=O)Nc4ccc(C(=O)/C=C\c5cc(OC)c(OC)c(OC)c5)cc4)[nH]c(=O)c23)C1 [Compound 3e]	significant increase
CCOC(=O)Cn1c(SCC(=O)Nc2ccc(C(=O)/C=C\c3ccccc3Cl)cc2)nc2sc3c(c2c1=O)CCN(C(=O)OCC)C3 [Compound 3a]	significant increase
